Consider the following pIC50 values measured on JAK3 (Homo sapiens (Human)).
Sequence (P52333 whole entry): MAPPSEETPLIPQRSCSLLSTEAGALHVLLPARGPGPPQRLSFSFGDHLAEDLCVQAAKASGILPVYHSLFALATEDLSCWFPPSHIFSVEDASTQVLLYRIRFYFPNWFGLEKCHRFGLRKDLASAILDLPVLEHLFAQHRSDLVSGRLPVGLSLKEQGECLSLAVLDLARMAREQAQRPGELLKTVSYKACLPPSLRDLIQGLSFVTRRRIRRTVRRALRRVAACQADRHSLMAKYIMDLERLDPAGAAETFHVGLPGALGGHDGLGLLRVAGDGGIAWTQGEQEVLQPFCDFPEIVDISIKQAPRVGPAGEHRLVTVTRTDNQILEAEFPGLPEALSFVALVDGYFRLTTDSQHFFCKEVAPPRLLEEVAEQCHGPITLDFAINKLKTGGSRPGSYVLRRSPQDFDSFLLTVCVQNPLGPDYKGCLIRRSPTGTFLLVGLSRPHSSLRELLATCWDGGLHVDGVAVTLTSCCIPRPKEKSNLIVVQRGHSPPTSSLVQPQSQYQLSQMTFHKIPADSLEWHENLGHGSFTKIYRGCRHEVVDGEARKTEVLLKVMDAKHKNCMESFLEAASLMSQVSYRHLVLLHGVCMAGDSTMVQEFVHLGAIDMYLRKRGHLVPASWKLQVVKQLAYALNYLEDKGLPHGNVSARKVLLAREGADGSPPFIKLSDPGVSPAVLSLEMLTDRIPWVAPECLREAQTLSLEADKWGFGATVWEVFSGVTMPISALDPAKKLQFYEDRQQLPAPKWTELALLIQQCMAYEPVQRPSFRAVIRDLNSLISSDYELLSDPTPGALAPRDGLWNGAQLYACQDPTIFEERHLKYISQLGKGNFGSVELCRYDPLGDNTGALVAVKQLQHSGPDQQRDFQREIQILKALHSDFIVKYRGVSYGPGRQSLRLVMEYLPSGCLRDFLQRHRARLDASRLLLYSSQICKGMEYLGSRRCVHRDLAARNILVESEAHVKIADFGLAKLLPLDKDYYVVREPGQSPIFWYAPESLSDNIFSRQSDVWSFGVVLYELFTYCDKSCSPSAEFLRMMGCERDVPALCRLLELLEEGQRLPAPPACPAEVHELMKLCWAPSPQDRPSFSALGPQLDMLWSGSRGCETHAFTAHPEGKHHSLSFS
// returns pIC50 (minus log10 of molar concentration), number only

Guide cases for pIC50, answers given:
| compound | system name | pIC50 |
| --- | --- | --- |
| N#CCC(=O)N1CC2(CCC(F)(c3cccc4nc(NC(=O)C5CC5)nn34)CC2)C1 [Compound 4-6] | JAK3 (Homo sapiens (Human)) | 5.07 |
| N#CCC(=O)N1CCC2(CCC(c3c(F)ccc4nc(NC(=O)C5CC5)nn34)CC2)CC1 [Compound 10-5] | JAK3 (Homo sapiens (Human)) | 5.27 |

Query compound follows.
With JAK3 (Homo sapiens (Human)) as the test system, O=C(Nc1nc2cccc([C@H]3CCC4(CCN(C(=O)[C@@H]5CC5(F)F)CC4)C3)n2n1)C1CC1 [Compound 6-7] showed pIC50 of 5.03
